assay: in vitro; settings: rat
Could you mark each record YES if its IC50 at 72 h falls strictly under 30 µM, and NO if it equals or exceeds it?

**Query** Threshold test, IC50 at 72 h < 30 µM: "CC(C)(C)OC(=O)N1CCN(c2ccccc2NC(=O)c2ccccc2Oc2ccccc2)CC1"
**Result** YES

**Query** Threshold test, IC50 at 72 h < 30 µM: "CC(C)(C)OC(=O)N1CCN(c2ccc(NC(=O)c3ccccc3Oc3ccccc3)cc2)CC1"
**Result** NO

**Query** Threshold test, IC50 at 72 h < 30 µM: "CC(C)(C)OC(=O)N1CCN(c2ccc(NC(=O)c3cccc([N+](=O)[O-])c3Oc3ccc(F)cc3)cc2)CC1"
**Result** NO

**Query** Threshold test, IC50 at 72 h < 30 µM: "CC(C)(C)OC(=O)N1CCN(c2ccccc2NC(=O)c2cccc(C(F)(F)F)c2Nc2ccccc2)CC1"
**Result** NO

**Query** Threshold test, IC50 at 72 h < 30 µM: "CC(C)(C)OC(=O)N1CCN(c2ccc(NC(=O)c3cccc(C(F)(F)F)c3Nc3ccccc3)cc2)CC1"
**Result** NO

**Query** Threshold test, IC50 at 72 h < 30 µM: "CC(C)(C)OC(=O)N1CCN(c2ccccc2NC(=O)c2cccc(N)c2Oc2ccc(F)cc2)CC1"
**Result** NO

Where these numbers come from: paper PMC9783227
